Test system: GM1 production in Jurkat cells
procedure_text: cells
Format: cell-based
test_context: Homo sapiens, Jurkat, 72 h
pIC50: −log10 of the molar value.

# compound, system, pIC50
rows = [
    ("COc1ccc(Cl)c(-c2cc3c(cc2F)C(NC(=O)O[C@@H]2CN4CCC2CC4)C(C)(C)CO3)c1 (stereo partly shown) [Example 340]", "GM1 production in Jurkat cells", 8.62),
    ("CC1(C)COc2cc(-c3cccc4c3oc3ccccc34)ccc2C1NC(=O)O[C@@H]1CN2CCC1CC2 (stereo partly shown) [Example 290]", "GM1 production in Jurkat cells", 9.05),
    ("O=C(NC1CCOc2cc(-c3ccc4c(c3)OCCO4)ccc21)O[C@@H]1CN2CCC1CC2 (stereo partly shown) [Example 37]", "GM1 production in Jurkat cells", 8.02),
    ("CC1(C)COc2cc(Cc3ccccc3)ccc2C1NC(=O)O[C@@H]1CN2CCC1CC2 (stereo partly shown) [Example 267]", "GM1 production in Jurkat cells", 8.04),
    ("CC1(C)CSc2ccc(-c3ccc(C(F)(F)F)cc3)cc2C1NC(=O)O[C@@H]1CN2CCC1CC2 (stereo partly shown) [Example 329]", "GM1 production in Jurkat cells", 7.47),
    ("Cn1ncc2c(-c3ccc4c(c3)OCCC4NC(=O)O[C@@H]3CN4CCC3CC4)cccc21 (stereo partly shown) [Example 51]", "GM1 production in Jurkat cells", 8.30),
    ("Cc1ccccc1-c1ccc2c(c1)OCC(C)(C)C2NC(=O)O[C@@H]1CN2CCC1CC2 (stereo partly shown) [Example 270]", "GM1 production in Jurkat cells", 9.00),
    ("CC1(C)COc2cc(-c3ccccc3C#N)ccc2C1NC(=O)O[C@@H]1CN2CCC1CC2 (stereo partly shown) [Example 189]", "GM1 production in Jurkat cells", 10.40),
    ("CCOc1ccccc1-c1ccc2c(c1)OCC(C)(C)C2NC(=O)O[C@@H]1CN2CCC1CC2 (stereo partly shown) [Example 186]", "GM1 production in Jurkat cells", 8.55),
    ("CC(C)Oc1ccc(F)c(-c2ccc3c(c2)OCC(C)(C)C3NC(=O)O[C@@H]2CN3CCC2CC3)c1 (stereo partly shown) [Example 135]", "GM1 production in Jurkat cells", 8.46),
    ("O=C(NC1CCOc2cc(-c3cccc(Cl)c3)ccc21)O[C@@H]1CN2CCC1CC2 (stereo partly shown) [Example 2]", "GM1 production in Jurkat cells", 8.46),
    ("Cc1cc(-c2ccc3c(c2)OCC(C)(C)C3NC(=O)O[C@@H]2CN3CCC2CC3)ccc1F (stereo partly shown) [Example 229]", "GM1 production in Jurkat cells", 8.68),
    ("CC1(C)COc2cc(-c3ccc(F)cc3F)ccc2C1NC(=O)O[C@@H]1CN2CCC1CC2 (stereo partly shown) [Example 233]", "GM1 production in Jurkat cells", 8.52),
    ("O=C(NC1CCOc2cc(-c3cnc4ccccc4c3)ccc21)O[C@@H]1CN2CCC1CC2 (stereo partly shown) [Example 55]", "GM1 production in Jurkat cells", 7.65),
    ("CC1(C)COc2cc(-c3cccc(Cl)c3)ccc2C1NC(=O)O[C@@H]1CN2CCC1CC2 (stereo partly shown) [Example 103]", "GM1 production in Jurkat cells", 8.84),
    ("COc1cccc(Cl)c1-c1ccc2c(c1)OCC(C)(C)C2NC(=O)O[C@@H]1CN2CCC1CC2 (stereo partly shown) [Example 121]", "GM1 production in Jurkat cells", 7.80),
    ("CC(C)Oc1ccc(-c2ccc3c(c2)OCC(C)(C)C3NC(=O)O[C@@H]2CN3CCC2CC3)cc1Cl (stereo partly shown) [Example 167]", "GM1 production in Jurkat cells", 8.48),
    ("CC1(C)COc2cc(-c3cccnc3)ccc2C1NC(=O)O[C@@H]1CN2CCC1CC2 (stereo partly shown) [Example 265]", "GM1 production in Jurkat cells", 7.41),
    ("O=C(NC1CCOc2cc(-c3ccc(OC(F)(F)F)cc3)ccc21)O[C@@H]1CN2CCC1CC2 (stereo partly shown) [Example 16]", "GM1 production in Jurkat cells", 7.56),
    ("COCCOc1ccc(-c2ccc3c(c2)OCC(C)(C)C3NC(=O)O[C@@H]2CN3CCC2CC3)cc1 (stereo partly shown) [Example 111]", "GM1 production in Jurkat cells", 8.90),
    ("O=C(NC1CCSc2cc(-c3cccc(OC(F)(F)F)c3)ccc21)O[C@@H]1CN2CCC1CC2 (stereo partly shown) [Example 320]", "GM1 production in Jurkat cells", 7.86),
    ("CC(C)(C)c1cccc(-c2ccc3c(c2)SCCC3NC(=O)O[C@@H]2CN3CCC2CC3)c1 (stereo partly shown) [Example 322]", "GM1 production in Jurkat cells", 8.23),
    ("COc1ccc(-c2cc3c(cc2F)C(NC(=O)O[C@@H]2CN4CCC2CC4)C(C)(C)CO3)c(C)c1 (stereo partly shown) [Example 342]", "GM1 production in Jurkat cells", 8.46),
    ("COc1ccc(-c2ccc3c(c2)OCCC3NC(=O)O[C@@H]2CN3CCC2CC3)cc1 (stereo partly shown) [Example 19]", "GM1 production in Jurkat cells", 7.52),
    ("CCc1ccc(-c2cc3c(cc2F)C(NC(=O)O[C@@H]2CN4CCC2CC4)C(C)(C)CO3)cc1 (stereo partly shown) [Example 334]", "GM1 production in Jurkat cells", 9.40),
    ("CCc1cccc(-c2cc3c(cc2F)C(NC(=O)O[C@@H]2CN4CCC2CC4)C(C)(C)CO3)c1 (stereo partly shown) [Example 333]", "GM1 production in Jurkat cells", 9.10),
    ("CCOc1cccc(-c2ccc3c(c2)OCCC3NC(=O)O[C@@H]2CN3CCC2CC3)c1 (stereo partly shown) [Example 21]", "GM1 production in Jurkat cells", 8.34),
    ("CC1(C)COc2cc(-c3cc(Cl)cc(Cl)c3)ccc2C1NC(=O)O[C@@H]1CN2CCC1CC2 (stereo partly shown) [Example 179]", "GM1 production in Jurkat cells", 8.35),
    ("COc1cc2c(cc1-c1cccc(F)c1)OCC(C)(C)C2NC(=O)O[C@@H]1CN2CCC1CC2 (stereo partly shown) [Example 349]", "GM1 production in Jurkat cells", 8.49),
    ("CC1(C)COc2cc(-c3cccc(C(F)(F)F)c3Cl)ccc2C1NC(=O)O[C@@H]1CN2CCC1CC2 (stereo partly shown) [Example 138]", "GM1 production in Jurkat cells", 8.80),
    ("COc1cccc(-c2cc3c(cc2F)C(NC(=O)O[C@@H]2CN4CCC2CC4)C(C)(C)CO3)c1 (stereo partly shown) [Example 335]", "GM1 production in Jurkat cells", 8.70),
]
